- assay_procedure: Serum stability assay
- Assay type: in vitro ADME, human
- experimental_context: 100% human serum (Sigma-Aldrich, human male AB plasma), 100 μM peptide, 37 °C, 0-24 h, TFA precipitation, UPLC-MS, triplicates
Ends that are not written are not given here.
assay_metric: half-life at 100 μM (min)
Response body: numeric value in min, unit text excluded.

Value lookup for half-life at 100 μM; key = KRRVRWIIW-NH2 [optP7]
13
